Quick list: protein stability index per entry.
B1: ETS1 (parent)
chain: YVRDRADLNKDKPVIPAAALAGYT

Variants of: B1
Test protocol: protein stability index of a GFP-peptide fusion (GPS, HEK-293T) (PSI 1-6); higher = more stable;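 also: lentivirally expressed fusions sorted by FACS into six bins by GFP to DsRed ratio, PSI derived from sequencing read proportions per bin multiplied by bin number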
Assay setup: c terminus: a fixed tail appended

| Mutation id | protein stability index |
| --- | --- |
| K10Y | 1.97 |
| D7A | 2.05 |
| P16E | 2.05 |
| G22P | 2.01 |
| K12P | 1.95 |
| G22T | 2.05 |
